target-desc: RORγt (Homo sapiens)
Sequence (P51449 1-497 isoform P51449-2, species assumed): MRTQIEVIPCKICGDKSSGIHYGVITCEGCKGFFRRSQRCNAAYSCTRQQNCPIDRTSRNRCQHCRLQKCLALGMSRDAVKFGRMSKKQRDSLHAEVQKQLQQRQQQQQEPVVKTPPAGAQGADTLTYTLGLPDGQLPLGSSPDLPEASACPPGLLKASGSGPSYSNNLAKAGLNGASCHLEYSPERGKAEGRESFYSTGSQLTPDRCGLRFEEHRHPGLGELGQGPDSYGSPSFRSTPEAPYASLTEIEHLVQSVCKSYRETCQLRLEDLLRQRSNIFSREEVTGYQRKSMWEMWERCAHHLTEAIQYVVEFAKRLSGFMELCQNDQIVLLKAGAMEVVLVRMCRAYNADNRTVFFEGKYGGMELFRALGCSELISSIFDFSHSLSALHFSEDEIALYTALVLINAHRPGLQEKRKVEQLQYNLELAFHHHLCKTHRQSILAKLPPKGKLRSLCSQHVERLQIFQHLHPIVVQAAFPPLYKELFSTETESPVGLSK
protocol-summary: RORγt binding test using fluorescent-labeled cholesterol (TR-FRET)
experimental-setup: read-out: Binding inhibitory rate of fluorescent-labeled cholesterol to RORγt at test compound 1 μM (%)
reported-metric: inhibition at 1 µM (%)

molecule: CCOc1ccc2c(c1)CCN(C(=O)c1cc(O)no1)[C@H]2C(=O)Nc1cc(F)c(C(C)(C)COCC(F)F)c(F)c1
target-desc: RORγt (Homo sapiens)
reported-metric: inhibition at 1 µM
value-measured: 101
//
molecule: CC[Si](C)(C)c1c(F)cc(NC(=O)[C@H]2c3ccc(OC)cc3CCN2C(=O)CCC(=O)O)cc1F
target-desc: RORγt (Homo sapiens)
reported-metric: inhibition at 1 µM
value-measured: 102
//
molecule: CCOc1ccc2c(n1)CCN(C(=O)c1cc(O)no1)[C@H]2C(=O)Nc1cc(F)c2c(c1)CCC2(C)C
target-desc: RORγt (Homo sapiens)
reported-metric: inhibition at 1 µM
value-measured: 102
//
molecule: COc1ccc2c(n1)CCN(C(=O)c1cc(O)no1)[C@H]2C(=O)Nc1ccc(C(C)(C)C)c(F)c1
target-desc: RORγt (Homo sapiens)
reported-metric: inhibition at 1 µM
value-measured: 101
//
molecule: COCc1ccc2c(c1)CCN(C(=O)Cc1cc(O)no1)[C@H]2C(=O)Nc1cc(F)c([Si](C)(C)C)c(F)c1
target-desc: RORγt (Homo sapiens)
reported-metric: inhibition at 1 µM
value-measured: 101
//
molecule: COCc1ccc2c(c1)CCN(C(=O)c1cc(O)no1)[C@H]2C(=O)Nc1cc(F)c2c(c1)CCC2(C)C
target-desc: RORγt (Homo sapiens)
reported-metric: inhibition at 1 µM
value-measured: 103
//
molecule: CCOc1ccc2c(c1)CCN(C(=O)Cc1cc(O)no1)C2C(=O)Nc1ccc(C(C)(C)C)c(F)c1 (stereo not shown)
target-desc: RORγt (Homo sapiens)
reported-metric: inhibition at 1 µM
value-measured: 100
